Numbers sourced from paper PMC7035281.

ASSAYED_SYSTEM: LeuT (LeuTWT) (Aquifex aeolicus, UniProt O67854)
Construct: full length, C-terminal thrombin site and 8xHis tag (pET16b), E. coli C41(DE3), purified in DDM; crystal of W8A a dimer in the asymmetric unit, residues 13-511 and 13-507 visible; smFRET variant from pQO18-TEV vector, His-tagged
PROTOCOL_DETAILS: scintillation proximity saturation binding, purified protein in DDM
METRIC_NAME: Kd (nM)

chemical_structure=N[C@@H](Cc1ccccc1)C(=O)O metric_name=Kd reported_value=898

====

ASSAYED_SYSTEM: LeuT (LeuTWT) (Aquifex aeolicus, UniProt O67854, W8A)
Construct: full length, C-terminal thrombin site and 8xHis tag (pET16b), E. coli C41(DE3), purified in DDM; crystal of W8A a dimer in the asymmetric unit, residues 13-511 and 13-507 visible; smFRET variant from pQO18-TEV vector, His-tagged
PROTOCOL_DETAILS: scintillation proximity saturation binding, purified protein in DDM; X-ray structure […] Å
METRIC_NAME: Kd (nM)

chemical_structure=N[C@@H](Cc1ccccc1)C(=O)O metric_name=Kd reported_value=796
